Where do these numbers come from? They come from paper PMC8097242.

biological target: N-terminal CRD of hGalectin-4 (Gal-4N) (Homo sapiens, UniProt P56470); construct: N-terminal CRD of hGalectin-4 (amino acids 1–150, including an additional C-terminus His-Tag); His-Tag (C, cleaved yes); made in house; host or cells: E. coli BL21 (pET29b); assay: 1H Saturation Transfer Difference (STD) NMR epitope mapping; format: binding; details: 1H-residue H5Galβ
Sequence (P56470 1-150): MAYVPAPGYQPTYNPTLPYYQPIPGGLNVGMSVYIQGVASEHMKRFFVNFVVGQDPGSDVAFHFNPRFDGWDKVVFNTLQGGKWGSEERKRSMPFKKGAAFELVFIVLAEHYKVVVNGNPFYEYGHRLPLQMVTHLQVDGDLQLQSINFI
TEST READOUT: STD% (%)

1) CC(=O)NC1C(OC2C(O)C(O)OC(CO)C2O)OC(CO)C(O)C1OC1OC(CO)C(O)C(OC2OC(CO)C(O)C(O)C2O)C1OC1OC(C)C(O)C(O)C1O (stereo not drawn) [B type-4 (penta)]; 86
2) CC1OC(OC2C(OC3C(CO)OC(O)C(O)C3O)OC(CO)C(O)C2OC2OC(CO)C(O)C(O)C2O)C(O)C(O)C1O (stereo not drawn) [B type-6 (tetra)]; 100
3) CC(=O)N[C@@H]1[C@@H](O[C@@H]2O[C@H](CO)[C@H](O)[C@H](O[C@H]3O[C@H](CO)[C@H](O)[C@H](O)[C@H]3O)[C@H]2O[C@@H]2O[C@@H](C)[C@@H](O)[C@@H](O)[C@@H]2O)[C@H](O)[C@@H](CO)O[C@H]1O [B type-1 (tetra)]; 100
4) CC(=O)N[C@H]1[C@@H](O[C@H]2[C@@H](O)[C@@H](CO)O[C@@H](O[C@H]3[C@@H](O)[C@@H](CO)O[C@@H](O[C@@H]4[C@@H](O)[C@H](O)O[C@H](CO)[C@@H]4O)[C@@H]3NC(C)=O)[C@@H]2O[C@@H]2O[C@@H](C)[C@@H](O)[C@@H](O)[C@@H]2O)O[C@H](CO)[C@H](O)[C@@H]1O [A type-4 (penta)]; 100
5) CC(=O)NC1C(OC2C(O)C(CO)OC(OC3C(CO)OC(O)C(O)C3O)C2OC2OC(C)C(O)C(O)C2O)OC(CO)C(O)C1O (stereo not drawn) [A type-6 (tetra)]; 100
6) CC(=O)NC1C(O)OC(CO)C(OC2OC(CO)C(O)C(OC3OC(CO)C(O)C(O)C3O)C2OC2OC(C)C(O)C(O)C2O)C1O (stereo not drawn) [B type-2 (tetra)]; 100

* * *

biological target: N-terminal CRD of hGalectin-4 (Gal-4N) (Homo sapiens); construct: N-terminal CRD of hGalectin-4 (amino acids 1–150, including an additional C-terminus His-Tag); His-Tag (C, cleaved yes); made in house; host or cells: E. coli BL21 (pET29b); assay: Isothermal titration calorimetry (ITC); assay type: binding; conditions: PBS pH 7.4, single binding site model
TEST READOUT: Kd (µM)

Consider the reported Kd for these molecules:
1) CC(=O)NC1C(O)OC(CO)C(OC2OC(CO)C(O)C(OC3OC(CO)C(O)C(O)C3O)C2OC2OC(C)C(O)C(O)C2O)C1O (stereo not drawn); 88
2) CC(=O)N[C@@H]1[C@@H](O[C@@H]2O[C@H](CO)[C@H](O)[C@H](O[C@H]3O[C@H](CO)[C@H](O)[C@H](O)[C@H]3NC(C)=O)[C@H]2O[C@@H]2O[C@@H](C)[C@@H](O)[C@@H](O)[C@@H]2O)[C@H](O)[C@@H](CO)O[C@H]1O; 267
3) CC(=O)N[C@@H]1[C@@H](O[C@@H]2O[C@H](CO)[C@H](O)[C@H](O[C@H]3O[C@H](CO)[C@H](O)[C@H](O)[C@H]3O)[C@H]2O[C@@H]2O[C@@H](C)[C@@H](O)[C@@H](O)[C@@H]2O)[C@H](O)[C@@H](CO)O[C@H]1O; 109

1. CC1OC(OC2C(OC3C(CO)OC(O)C(O)C3O)OC(CO)C(O)C2OC2OC(CO)C(O)C(O)C2O)C(O)C(O)C1O (stereo not drawn)
2. CC(=O)NC1C(OC2C(O)C(CO)OC(OC3C(CO)OC(O)C(O)C3O)C2OC2OC(C)C(O)C(O)C2O)OC(CO)C(O)C1O (stereo not drawn)
3. CC(=O)NC1C(O)OC(CO)C(OC2OC(CO)C(O)C(OC3OC(CO)C(O)C(O)C3NC(C)=O)C2OC2OC(C)C(O)C(O)C2O)C1O (stereo not drawn)
rank_up(items): orders items by reported Kd in ascending numerical order. Would you mind listing the labels in the order requested?
1, 2, 3
